TARGET SYSTEM: human MAO A (Homo sapiens, UniProt P21397)
Sequence (P21397 whole entry): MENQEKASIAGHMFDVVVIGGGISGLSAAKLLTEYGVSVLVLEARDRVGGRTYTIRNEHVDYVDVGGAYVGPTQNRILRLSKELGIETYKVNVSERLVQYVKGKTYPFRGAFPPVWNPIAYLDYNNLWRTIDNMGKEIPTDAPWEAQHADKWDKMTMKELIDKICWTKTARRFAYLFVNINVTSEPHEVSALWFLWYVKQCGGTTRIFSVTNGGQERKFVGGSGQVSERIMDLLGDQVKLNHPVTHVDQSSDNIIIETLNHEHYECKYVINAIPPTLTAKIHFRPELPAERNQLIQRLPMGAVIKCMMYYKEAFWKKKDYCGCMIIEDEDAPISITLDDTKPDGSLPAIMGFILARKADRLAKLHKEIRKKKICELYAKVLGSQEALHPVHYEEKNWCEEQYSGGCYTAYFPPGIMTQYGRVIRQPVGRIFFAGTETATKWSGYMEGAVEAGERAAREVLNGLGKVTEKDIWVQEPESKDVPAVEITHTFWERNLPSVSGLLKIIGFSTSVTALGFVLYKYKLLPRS
MEASURED QUANTITY: Ki (µM)

MOL | MEASURED QUANTITY | UNITS TEXT | QUANTITATIVE READOUT
CCC(=O)NC[C@H]1CN(c2ccc([C@H]3CC[S@+]([O-])CC3)c(F)c2)C(=O)O1 | Ki | µM | 905
CCC(=O)NC[C@H]1CN(c2ccc(C3CCS(=O)(=O)CC3)c(F)c2)C(=O)O1 | Ki | µM | 3000

P. O=C(NC[C@H]1CN(c2ccc([C@H]3CC[S@@+]([O-])CC3)c(F)c2)C(=O)O1)C(Cl)Cl
Q. O=C(NC[C@H]1CN(c2ccc([C@H]3CC[S@+]([O-])CC3)c(F)c2)C(=O)O1)C(Cl)Cl
Prompt: API: POST /compare with P and Q ; response names the item with higher Ki. Write the label of whichever entry you select.
Completion: P
